# Test system: human iPSC neurons, astrocytes and microglia treated with 5 μM sAβ42s
# assayComment: Focused small molecule screen, triple culture (neuron, astrocyte, microglia), rescue from sAβ42s toxicity
# Format: cell-based
# assaySetup: 3.13 μM compound
valueKind: % MAP2 rescue (%)

compound=Cc1[nH]c(/C=C2\C(=O)Nc3ccccc32)c(C)c1CCC(=O)O targetsystem="human iPSC neurons, astrocytes and microglia treated with 5 μM sAβ42s" valuekind="% MAP2 rescue" quantitativereadout=31
compound=O=C1Nc2ccccc2/C1=C1/Nc2ccccc2/C1=N\O targetsystem="human iPSC neurons, astrocytes and microglia treated with 5 μM sAβ42s" valuekind="% MAP2 rescue" quantitativereadout=6
compound=CN(C)S(=O)(=O)c1ccc2c(c1)/C(=C/c1cc3c([nH]1)CCCC3)C(=O)N2 targetsystem="human iPSC neurons, astrocytes and microglia treated with 5 μM sAβ42s" valuekind="% MAP2 rescue" quantitativereadout=72
compound="N#CC(c1ccnc(NCCc2cccnc2)n1)c1nc2ccccc2s1 (centres unmarked)" targetsystem="human iPSC neurons, astrocytes and microglia treated with 5 μM sAβ42s" valuekind="% MAP2 rescue" quantitativereadout=54
compound=CCCCCCCCCCCCCCCCCC(=O)NCCc1ccc(O)c(O)c1 targetsystem="human iPSC neurons, astrocytes and microglia treated with 5 μM sAβ42s" valuekind="% MAP2 rescue" quantitativereadout=28
compound=C=C[C@@]1(C)CC(=O)[C@]2(O)[C@@]3(C)[C@@H](O)CCC(C)(C)[C@@H]3[C@H](OC(=O)CCN(C)C)[C@H](OC(C)=O)[C@@]2(C)O1.Cl targetsystem="human iPSC neurons, astrocytes and microglia treated with 5 μM sAβ42s" valuekind="% MAP2 rescue" quantitativereadout=17
compound=N#C/C(=C\c1ccc(O)c(O)c1)C(=O)OCCc1cccs1 targetsystem="human iPSC neurons, astrocytes and microglia treated with 5 μM sAβ42s" valuekind="% MAP2 rescue" quantitativereadout=22
compound="COC(=O)C1(C)c2[nH]c3ccccc3c2CCN1C(=O)CCl (centres unmarked)" targetsystem="human iPSC neurons, astrocytes and microglia treated with 5 μM sAβ42s" valuekind="% MAP2 rescue" quantitativereadout=44
